Would you kindly list growth for each of these molecules?
Tested on: NCI-H226 lung
Assay: NCI-60 one-dose screen, 48 h (100 = growth as untreated, 0 = no growth, -100 = all killed)
Details: 10 µM unless noted
This is part of a sample that, as a whole, favours compounds with a hit. Of some 83,000 tested, about 20% had one in any assay.
Only the number, expressed in %, is required.

Quick check: growth on NCI-H226 lung, item c1ccc(CNc2ncnc3ccc(-c4cnc5[nH]ncc5c4)cc23)cc1 ?
55.7

Can you check Clc1ccc2c(NCCCN3CCOCC3)c3oc4ccc(Cl)cc4c3nc2c1 next?
38.4

Can you check CSc1ccc2c(c1)N(C(=O)/C(C#N)=C/c1c[nH]c3ccccc13)c1ccccc1S2 next?
50.4

Can you check N#Cc1nc(-c2ccccc2)oc1S(=O)(=O)N1CCN(CCc2ccccn2)CC1 next?
98.1

Can you check CN(C)c1ccc(-c2c(NC(C)(C)C)nc3c(OCCc4ccccc4)cccn23)cc1 next?
10.6

Can you check CCCCCCNC(=O)Oc1ccc(/C(=C(/C)c2ccccc2)c2ccc(OCCN3CCCCCC3)cc2)cc1 next?
76.7

Can you check Nc1ncc(-c2ccc3ncnc(N4CCc5cc(F)c(Cl)cc54)c3c2)cc1CO next?
18.9

Can you check Cc1nc2cnc(N)c(C#Cc3cncc(C(=O)Nc4ccc(Cl)c(C(F)(F)F)c4)c3)c2nc1C next?
26.7

Can you check COc1ccc(-n2c(SCC(=O)Nc3ccc(-c4nc5ccccc5[nH]4)cc3)nc3ccccc3c2=O)cc1 next?
48.5

Can you check c1ccc2c(NCCCn3ccnc3)c3oc4ccccc4c3nc2c1 next?
-1.35

Can you check Cc1sc2c(c1C)c(=O)nc1c(-c3nc(-c4ccc(F)cc4)no3)n[nH]n12 next?
93.1

Can you check C#Cc1nc(C2=C(C)/C(=N/OCc3ccccc3)CC2)cs1 next?
48.4

Can you check COc1cc(/C=C/C(=O)c2cc(OC)c(OC)c(OC)c2)ccc1OCc1ccc(F)cc1 next?
49.5

Can you check COc1cccc(COc2ccc(/C=C3/C(=O)Nc4cc(Cl)ccc43)cc2)c1 next?
84.9

Can you check C#Cc1nc(C2=C(C)C(O)CC2)cs1 (stereo not drawn) next?
110

Can you check NC(=O)c1cc(-c2ccc3ncnc(N4CCc5cc(F)c(Cl)cc54)c3c2)cnc1N next?
9.39

Can you check CNC(=O)c1cc(-c2ccc(NC(=O)Nc3ccc(N4CCOCC4)c(C(F)(F)F)c3)cc2)nc2cccnc12 next?
54.8

Can you check N#Cc1ccc(C(=O)CSc2nc(Nc3ccc(S(N)(=O)=O)cc3)c3ccccc3n2)cc1 next?
105

====

System: EKVX NSCLC
Test: NCI-60 one-dose screen, 48 h (100 = growth as untreated, 0 = no growth, -100 = all killed)
Conditions: 10 µM unless noted
Compounds without any hit were thinned out: in the full panel of roughly 83,000, 20% have a hit. The source made the active and inactive calls. Rule for the calls: active = growth percent below 10; inactive = the rest.
Would you kindly list growth for each of these compounds?

Quick check: growth on EKVX NSCLC, item N[C@@H](Cc1cn(-c2ccnc3ccccc23)nn1)C(=O)O ?
98.5% (inactive)

Can you check CC(=O)Oc1ccccc1C(=O)Nc1ccc(C(=O)/C=C/c2cccs2)cc1 next?
103% (inactive)

Can you check N#Cc1ccc(/C=N/NC(=O)c2[nH]c3ccc(Br)cc3c2-c2ccccc2)s1 next?
25% (inactive)

Can you check COc1ccc(-n2c(SCC(=O)Nc3ccc(-c4nc5ccccc5[nH]4)cc3)nc3ccccc3c2=O)cc1 next?
53.1% (inactive)

Can you check Cc1cc(=O)oc2cc(OCCCOc3ccc(/C=C/C(=O)Nc4ccc(Cl)cc4)cc3)ccc12 next?
98.5% (inactive)

Can you check COc1cc(-c2nc3ccc(-c4nnc(SCC(=O)Nc5ccc(C(C)=O)cc5)o4)cc3[nH]2)cc(OC)c1OC next?
94% (inactive)

Can you check COc1cc(/C=C/C(=O)c2ccc(C)cc2)ccc1Oc1nc(NCCO)nc(N2CCOCC2)n1 next?
67.8% (inactive)

Can you check N#Cc1c(-c2ccc(F)cc2)nc2c(C#N)c(Nc3ccccc3)nn2c1N next?
92.8% (inactive)

Can you check O=C(CSc1nccc(=O)[nH]1)Nc1ccc(-c2nc3ccccc3[nH]2)cc1 next?
111% (inactive)

Can you check Cc1cc(C(=O)Nc2sc3c(c2C(N)=O)CCC(=O)C3)ccc1OCCN1CCCCC1 next?
107% (inactive)

Can you check C#Cc1nc(C2=C(C)C(OC(=O)CCC(=O)O)CC2)cs1 (stereo not drawn) next?
99.2% (inactive)

Can you check Cc1sc2c(c1C)c(=O)nc1c(-c3nc(-c4ccc(F)cc4)no3)n[nH]n12 next?
95.2% (inactive)

Can you check Cc1nc(-c2cc3ccccc3oc2=O)ccc1C(=O)/C=C/c1ccccn1 next?
84.3% (inactive)

Can you check COc1ccc(C(=O)/C=C/c2ccc(OCc3ccc(Cl)cc3)c(OC)c2)cc1OC next?
62.2% (inactive)

Can you check Nc1cc(-c2c[nH]c3ccc(F)cc23)nc2cc(-c3c[nH]c4ccc(F)cc34)nn12 next?
78.2% (inactive)

Can you check CCOC(=O)c1c(NC(=O)c2cccc(C(F)(F)F)c2)sc2cc(O)ccc12 next?
84.8% (inactive)

Can you check N#Cc1nc(-c2ccccc2)oc1N1CCC(CO)C1 (stereo not drawn) next?
77.4% (inactive)

Can you check O=C1Nc2cc(Cl)ccc2/C1=C\c1ccc(OCc2ccc(Br)cc2F)cc1 next?
-18.9% (active)

Can you check COc1ccc(-c2nc3ccc(-c4nnc(SCC(=O)Nc5ccc(C(=O)/C=C/c6ccccc6)cc5)o4)cc3[nH]2)cc1OC next?
104% (inactive)

Can you check COc1cccc(-c2nn(-c3ccccc3)cc2-c2ccnc(N3CCN(C(=O)c4ccccc4)CC3)c2)c1 next?
103% (inactive)

Can you check CC(C)(C)Nc1nc2c(OCCc3ccccc3)cccn2c1-c1ccc(Cl)cc1 next?
5.46% (active)

Can you check N#Cc1c(-c2ccc(Cl)cc2)nc(SCc2ccc(F)cc2)nc1N1CCNCC1 next?
73.7% (inactive)

Can you check Clc1ccc2oc3c(NCCCN4CCOCC4)c4ccccc4nc3c2c1 next?
37.9% (inactive)

====

Tested on: CCRF-CEM leukemia
Test: NCI-60 one-dose screen, 48 h (100 = growth as untreated, 0 = no growth, -100 = all killed)
Conditions: 10 µM unless noted
This is part of a sample that, as a whole, favours compounds with a hit. Of some 83,000 tested, about 20% had one in any assay. Activity calls are given as the source filed them. The calls were made as follows: active = growth percent below 10; inactive = the rest.
Would you kindly list growth for each of these compounds?

growth for CCOC(=O)c1c(Nc2ccccc2)nn2c(N)c(C#N)c(-c3ccccc3)nc12 ?
68.3% (inactive)

Can you check O=C(CN1C(=O)/C(=C/c2ccccc2)SC1=S)N1CCOCC1 next?
88% (inactive)

Can you check COc1ccc(-c2cc(C(=O)N=Nc3c(O)[nH]c4ccccc34)c3ccccc3n2)cc1OC next?
100% (inactive)

Can you check C#Cc1nc(C2=C(C)/C(=N/OCc3ccccc3)CC2)cs1 next?
-30.2% (active)

Can you check Cc1ccc2ccc3ccc(C)nc3c2n1.Cc1ccc2ccc3ccc(C)nc3c2n1.Oc1c(Cl)cc(Cl)c2ccc(CN3CCCCC3)nc12.[Ru] next?
-47.9% (active)

====

Would you kindly list growth for each of these compounds?
Tested on: OVCAR-8 ovarian
Assay: NCI-60 one-dose screen, 48 h (100 = growth as untreated, 0 = no growth, -100 = all killed)
Conditions: 10 µM unless noted
About 83,000 compounds went through this panel and 20% of them were active in at least one assay; those are over-represented in the sample as a whole.
Only the number, expressed in %, is required.

Quick check: growth on OVCAR-8 ovarian, item CCCC(=O)NC(c1cccnc1)c1cc(C)c2cccnc2c1O (stereo not given) ?
14

Can you check COc1cc(/C=C/C(=O)c2ccccc2)ccc1Oc1nc(NCCO)nc(N2CCOCC2)n1 next?
99.1

Can you check CC(C)(O)c1cncc(-c2ccc3ncnc(N4CCc5cc(F)c(Cl)cc54)c3c2)c1 next?
25.9

Can you check COc1ccc(-c2nc3ccc(-c4nnc(SCC(=O)Nc5ccc(C(=O)/C=C/c6ccc(Cl)cc6)cc5)o4)cc3[nH]2)cc1OC next?
106

Can you check N#Cc1ccc(/C=N/NC(=O)c2[nH]c3ccc(Br)cc3c2-c2ccccc2)s1 next?
2.33

Can you check OC1CCN(CCCOc2c3ccccc3nc3c2oc2ccc(Cl)cc23)CC1 next?
18.7

Can you check COc1cc(OC)c(C2SCC(=O)N2Nc2ncnc3ccccc23)cc1OC (stereo not given) next?
106

Can you check Fc1ccc(-c2nc(C(Cl)Cl)nc3cc(-c4ccccc4)nn23)cc1 next?
-0.748

Can you check O=C(N/N=C/c1ccc([N+](=O)[O-])s1)c1[nH]c2ccc(Br)cc2c1-c1ccccc1 next?
-8.62

Can you check CS(=O)(=O)c1ccc(-c2nc3ccccn3c2/C=N/Nc2nc(-c3ccc(Br)cc3)cs2)cc1 next?
99.1

Can you check C=CCn1c(SCC(=O)c2ccc(Br)cc2)nnc1-c1c[nH]c2ccccc12 next?
94.7

Can you check COc1ccc(N/N=C/c2c(-c3ccc(S(C)(=O)=O)cc3)nc3ccccn23)cc1 next?
49.1

Can you check COc1cc2nc(-c3ccc(C(F)(F)F)cc3)cc(OCCCNCC3CCCO3)c2cc1OC (stereo not given) next?
35.6

Can you check COc1ccc(COc2ccc(/C=C3/C(=O)Nc4cc(Cl)ccc43)cc2)cc1 next?
96.3

Can you check COC(=O)C(C)NS(=O)(=O)/N=C1\NC(=O)NC1=C(Cl)Cl (stereo not given) next?
100
